# Assay system: PKCα (Homo sapiens)
# Assay info: Kinase panel (Novartis)
# Format: biochemical
Property label: IC50 (µM)
Number in µM, nothing else.

Item under review: Cn1cc(C2=C(c3coc4ccccc34)C(=O)NC2=O)c2cc(Br)ccc21 . Reported IC50?
61.4

====

Readings of inhibition at 1 µM for the listed compounds
# Assay system: GSK3α (Homo sapiens, UniProt P49840)
# Sequence (P49840 whole entry, species assumed): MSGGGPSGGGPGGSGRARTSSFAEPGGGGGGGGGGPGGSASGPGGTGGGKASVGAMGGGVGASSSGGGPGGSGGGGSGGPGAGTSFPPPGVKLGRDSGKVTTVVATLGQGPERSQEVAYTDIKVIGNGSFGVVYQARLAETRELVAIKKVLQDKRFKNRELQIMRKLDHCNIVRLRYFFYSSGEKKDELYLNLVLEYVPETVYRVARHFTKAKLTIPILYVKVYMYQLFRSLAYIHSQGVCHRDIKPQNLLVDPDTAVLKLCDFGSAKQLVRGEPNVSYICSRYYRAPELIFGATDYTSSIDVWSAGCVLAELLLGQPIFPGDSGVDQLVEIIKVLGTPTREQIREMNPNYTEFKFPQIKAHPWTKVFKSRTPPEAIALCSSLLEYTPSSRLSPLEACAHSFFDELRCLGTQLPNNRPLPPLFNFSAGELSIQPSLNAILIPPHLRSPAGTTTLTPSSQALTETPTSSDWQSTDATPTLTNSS
# Assay info: Inhibition of various kinases (% inhibition)
# Assay type: biochemical
# Recorded conditions: 1 μM
Number in %, nothing else.

Consider the reported inhibition at 1 µM for these compounds:
[
  {
    "Chem smiles": "O=C1NC(=O)C(c2cn(CCCO)c3ccc(Br)cc23)=C1c1coc2ccccc12",
    "inhibition at 1 µM, %": 62
  },
  {
    "Chem smiles": "C#Cc1ccc2c(c1)c(C1=C(c3coc4ccccc34)C(=O)NC1=O)cn2C",
    "inhibition at 1 µM, %": 89
  }
]

Item under review: COc1cccc2c(C3=C(c4cn(C)c5cc(I)c(F)cc45)C(=O)NC3=O)coc12 . Reported inhibition at 1 µM?
60

Item under review: C#CCOc1ccc2c(C3=C(c4cn(C)c5ccc(Br)cc45)C(=O)NC3=O)coc2c1 . Reported inhibition at 1 µM?
84

====

# Assay system: CDK2 (Homo sapiens, UniProt P24941)
# Assay info: Inhibition of various kinases (% inhibition)
# Assay type: biochemical
# Recorded conditions: 1 μM
Property label: inhibition at 1 µM
Report as: number unit

Consider the reported inhibition at 1 µM for these molecules:
[
  {
    "Molecule": "C#Cc1ccc2c(c1)c(C1=C(c3coc4ccccc34)C(=O)NC1=O)cn2C [Compound 36]",
    "inhibition at 1 µM": "68%"
  },
  {
    "Molecule": "COc1cccc2c(C3=C(c4cn(C)c5cc(I)c(F)cc45)C(=O)NC3=O)coc12 [Compound 10]",
    "inhibition at 1 µM": "9%"
  },
  {
    "Molecule": "O=C1NC(=O)C(c2cn(CCCO)c3ccc(Br)cc23)=C1c1coc2ccccc12 [Compound 21]",
    "inhibition at 1 µM": "62%"
  }
]

# input for lookup
Item under review: C#CCOc1ccc2c(C3=C(c4cn(C)c5ccc(Br)cc45)C(=O)NC3=O)coc2c1 [Compound 23] . Reported inhibition at 1 µM?
22%

====

# Assay system: PKCβ2 (Homo sapiens, UniProt P05771)
# Sequence (P05771 1-673 isoform P05771-2): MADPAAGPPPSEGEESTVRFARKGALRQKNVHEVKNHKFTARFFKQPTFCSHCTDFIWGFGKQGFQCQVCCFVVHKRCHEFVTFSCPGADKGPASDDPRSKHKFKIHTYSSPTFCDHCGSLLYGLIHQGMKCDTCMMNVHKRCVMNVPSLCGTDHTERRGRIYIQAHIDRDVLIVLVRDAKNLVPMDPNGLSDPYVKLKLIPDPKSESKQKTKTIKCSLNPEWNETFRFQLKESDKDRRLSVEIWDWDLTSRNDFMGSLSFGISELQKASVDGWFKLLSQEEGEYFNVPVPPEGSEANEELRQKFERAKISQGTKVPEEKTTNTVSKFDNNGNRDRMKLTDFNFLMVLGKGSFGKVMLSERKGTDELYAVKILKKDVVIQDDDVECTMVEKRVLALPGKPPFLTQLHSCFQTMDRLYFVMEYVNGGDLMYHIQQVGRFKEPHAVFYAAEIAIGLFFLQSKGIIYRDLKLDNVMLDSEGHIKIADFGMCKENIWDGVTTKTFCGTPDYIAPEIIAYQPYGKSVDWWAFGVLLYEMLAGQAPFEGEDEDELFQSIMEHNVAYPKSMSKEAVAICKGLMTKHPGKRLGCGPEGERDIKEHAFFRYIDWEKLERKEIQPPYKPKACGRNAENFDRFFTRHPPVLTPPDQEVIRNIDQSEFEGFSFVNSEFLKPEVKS
# Assay info: Inhibition of various kinases (% inhibition)
# Type: biochemical
# Recorded conditions: 10 μM
Property label: inhibition at 10 µM (%)
Number in %, nothing else.

Item under review: C#CCOc1ccc2c(C3=C(c4cn(C)c5ccc(Br)cc45)C(=O)NC3=O)coc2c1 . Reported inhibition at 10 µM?
25

Item under review: C#Cc1ccc2c(c1)c(C1=C(c3coc4ccccc34)C(=O)NC1=O)cn2C . Reported inhibition at 10 µM?
74

Item under review: COc1cccc2c(C3=C(c4cn(C)c5cc(I)c(F)cc45)C(=O)NC3=O)coc12 . Reported inhibition at 10 µM?
15

Item under review: O=C1NC(=O)C(c2cn(CCCO)c3ccc(Br)cc23)=C1c1coc2ccccc12 . Reported inhibition at 10 µM?
83

====

# Assay system: GSK3α (Homo sapiens, UniProt P49840)
# Assay info: Inhibition of various kinases (% inhibition)
# Type: biochemical
# Recorded conditions: 10 μM
Property label: inhibition at 10 µM (%)
Number in %, nothing else.

[
  {
    "Molecule": "C#CCOc1ccc2c(C3=C(c4cn(C)c5ccc(Br)cc45)C(=O)NC3=O)coc2c1 [Compound 23]",
    "Assay system": "GSK3α (Homo sapiens, UniProt P49840)",
    "Property label": "inhibition at 10 µM",
    "Recorded measurement": 99
  }
]

Item C#Cc1ccc2c(c1)c(C1=C(c3coc4ccccc34)C(=O)NC1=O)cn2C [Compound 36] with GSK3α (Homo sapiens, UniProt P49840) - inhibition at 10 µM?
100

Item O=C1NC(=O)C(c2cn(CCCO)c3ccc(Br)cc23)=C1c1coc2ccccc12 [Compound 21] with GSK3α (Homo sapiens, UniProt P49840) - inhibition at 10 µM?
99

Item COc1cccc2c(C3=C(c4cn(C)c5cc(I)c(F)cc45)C(=O)NC3=O)coc12 [Compound 10] with GSK3α (Homo sapiens, UniProt P49840) - inhibition at 10 µM?
95
